# System: THP-1 cells
# assay_overview: MCP-1 Induced Chemotaxis in THP-1 Cells
# Assay type: cell-based
# condition_description: Homo sapiens, THP-1, 3 h, read-out: Inhibition of MCP-1 Induced Chemotaxis IC50
measured_quantity: pIC50
pIC50 (log units): -log10 of the concentration in mol/L.

Please report the measured pIC50 for O=C(O)C(C1CCN(C(=O)/C=C/c2cc(F)c(F)c(F)c2)CC1)N1CCC(c2c[nH]c3ccccc23)CC1 (stereo not shown) [Cpd 6]
8.10

Please report the measured pIC50 for Cc1ccc(NC(=O)N2CCC(C(C(=O)O)N3CCC(c4c[nH]c5ccccc45)CC3)CC2)cc1C (stereo not shown) [Cpd 100]
6.03

Please report the measured pIC50 for COC(=O)C(C1CCN(C(=O)/C=C/c2cc(F)c(F)c(F)c2)CC1)N1CCC(c2c[nH]c3ccccc23)CC1 (stereo not shown) [Cpd 87]
6.00

Please report the measured pIC50 for O=C(O)[C@@H](C1CCN(C(=O)/C=C/c2cc(F)c(F)c(F)c2)CC1)N1CCC(c2c[nH]c3ccccc23)CC1 [Cpd 14]
7.15

###

measured_quantity: log10 of IC50 (log10 of the value in nM)
Heads up: the numbers are on a log10 scale; they represent IC50 in nM.

# return log10 of IC50 for COc1ccc(C2CCN([C@@H](CO)C3CCN(C(=O)/C=C/c4cc(F)cc(F)c4)CC3)CC2)cc1 , test system: CCR2 (Homo sapiens, UniProt P41597)
1.60

# return log10 of IC50 for CC(=O)NCC(C1CCN(C(=O)/C=C/c2ccc(Cl)c(Cl)c2)CC1)N1CCC(c2c[nH]c3ccccc23)CC1 (stereo not shown) , test system: CCR2 (Homo sapiens, UniProt P41597)
1.95

# return log10 of IC50 for COc1ccc(NC(=O)N2CCC(C(C(=O)O)N3CCC(c4c[nH]c5ccccc45)CC3)CC2)cc1Cl (stereo not shown) , test system: CCR2 (Homo sapiens, UniProt P41597)
2.93

# return log10 of IC50 for O=C(/C=C/c1ccc(F)c(Br)c1)N1CCC(C(CO)N2CCC(c3c[nH]c4ccc(F)cc34)CC2)CC1 (stereo not shown) , test system: CCR2 (Homo sapiens, UniProt P41597)
1.51

# return log10 of IC50 for CS(=O)(=O)Nc1ccc(C2CCN(C(CO)C3CCN(C(=O)/C=C/c4ccc(Cl)c(Cl)c4)CC3)CC2)cc1 (stereo not shown) , test system: CCR2 (Homo sapiens, UniProt P41597)
3.70

# return log10 of IC50 for N=C(NC(=O)c1ccc(Cl)c(Cl)c1)N1CCC(C(CO)N2CCC(c3c[nH]c4ccccc34)CC2)CC1 (stereo not shown) , test system: CCR2 (Homo sapiens, UniProt P41597)
2.51

# return log10 of IC50 for COc1ccc(C2CCN(C(CO)C3CCN(C(=O)/C=C/c4cc(F)c(F)c(F)c4)CC3)CC2)cc1 (stereo not shown) , test system: CCR2 (Homo sapiens, UniProt P41597)
2.00

###

# tgt: CCR2 (Homo sapiens, UniProt P41597)
Give pIC50 for every item shown.
pIC50 (log units): -log10 of the concentration in mol/L.

Please report the measured pIC50 for Nc1ccc2[nH]cc(C3CCN(C(CO)C4CCN(C(=O)/C=C/c5cc(F)c(F)c(F)c5)CC4)CC3)c2n1 (stereo not drawn)
7.00

Please report the measured pIC50 for OCC(C1CCN(C(=S)Nc2cc(F)cc(F)c2)CC1)N1CCC(c2c[nH]c3ccccc23)CC1 (stereo not drawn)
6.89

Please report the measured pIC50 for COc1ccc2c(C3CCN(C(C(=O)O)C4CCN(C(=O)Nc5ccc(Cl)c(Cl)c5)CC4)CC3)c[nH]c2c1 (stereo not drawn)
7.70

Please report the measured pIC50 for O=C(O)C(C1CCN(C(=O)Nc2cccc(Br)c2)CC1)N1CCC(c2c[nH]c3ccccc23)CC1 (stereo not drawn)
6.77

Please report the measured pIC50 for O=C(O)C(C1CCN(C(=O)Nc2ccc(F)c(Cl)c2)CC1)N1CCC(c2c[nH]c3ccccc23)CC1 (stereo not drawn)
7.52

Please report the measured pIC50 for O=C(CC1CCN(C(C(=O)O)C2CCN(C(=O)/C=C/c3cc(F)cc(F)c3)CC2)CC1)NCc1ccccc1 (stereo not drawn)
5.06

Please report the measured pIC50 for CCNC(=O)NCC(C1CCN(C(=O)/C=C/c2cc(F)cc(F)c2)CC1)N1CCC(c2c[nH]c3ccccc23)CC1 (stereo not drawn)
5.77

Please report the measured pIC50 for COc1ccc(NC(=O)N2CCC(C(C(=O)O)N3CCC(c4c[nH]c5ccccc45)CC3)CC2)cc1 (stereo not drawn)
4.85

Please report the measured pIC50 for O=C(O)C(C1CCN(C(=O)Nc2cccc(C(F)(F)F)c2)CC1)N1CCC(c2c[nH]c3ccccc23)CC1 (stereo not drawn)
6.60

Please report the measured pIC50 for O=C(/C=C/c1cc(F)c(F)c(F)c1)N1CCC(C(CO)N2CCC(c3ccc(F)cc3)CC2)CC1 (stereo not drawn)
6.85

Please report the measured pIC50 for CC(=O)OCC(C1CCN(C(=O)/C=C/c2cc(F)c(F)c(F)c2)CC1)N1CCC(c2c[nH]c3ccccc23)CC1 (stereo not drawn)
7.70

Please report the measured pIC50 for O=C(/C=C/c1cc(F)cc(F)c1)N1CCC(C(CO)N2CCC(c3c[nH]c4ccccc34)CC2)CC1 (stereo not drawn)
9.22

Please report the measured pIC50 for O=C(Nc1ccc(Cl)c(Cl)c1)N1CCC(C(CO)N2CCC(c3c[nH]c4ccccc34)CC2)CC1 (stereo not drawn)
8.05

Please report the measured pIC50 for COc1cccc2c(C3CCN(C(CO)C4CCN(C(=O)OC(C)(C)C)CC4)CC3)c[nH]c12 (stereo not drawn)
5.41

Please report the measured pIC50 for O=C(/C=C/c1ccc(Cl)c(Cl)c1)N1CCC(C(CO)N2CCC(c3nc4ccccc4[nH]3)CC2)CC1 (stereo not drawn)
7.15

###

# tgt: CCR2 (Homo sapiens)
# Sequence (P41597 1-360 isoform P41597-2): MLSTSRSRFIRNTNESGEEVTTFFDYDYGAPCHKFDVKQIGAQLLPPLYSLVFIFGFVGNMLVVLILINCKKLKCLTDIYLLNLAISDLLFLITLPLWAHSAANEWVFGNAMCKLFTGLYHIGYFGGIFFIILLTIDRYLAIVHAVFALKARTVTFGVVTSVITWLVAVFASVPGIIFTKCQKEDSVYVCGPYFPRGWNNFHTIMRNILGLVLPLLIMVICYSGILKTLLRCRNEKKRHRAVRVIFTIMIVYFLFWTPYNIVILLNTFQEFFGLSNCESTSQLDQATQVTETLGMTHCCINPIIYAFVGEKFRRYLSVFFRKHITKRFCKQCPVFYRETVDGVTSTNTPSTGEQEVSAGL
measured_quantity: IC50 (nM)
Your answer is read as nM, so omit the unit and give the number.

Please report the measured IC50 for O=C(/C=C/c1cc(F)cc(F)c1)N1CCC(C(CO)N2CCC(c3ccc(F)cc3)CC2)CC1 (stereo not drawn)
220

Please report the measured IC50 for O=C(/C=C/c1cc(F)cc(F)c1)N1CCC(C(CO)N2CCC(c3c[nH]c4ncccc34)CC2)CC1 (stereo not drawn)
19.3

Please report the measured IC50 for O=C(c1cc2ccccc2o1)N1CCC(C(CO)N2CCC(c3c[nH]c4ccccc34)CC2)CC1 (stereo not drawn)
270

Please report the measured IC50 for O=C(CC1CCN(C(C(=O)O)C2CCN(C(=O)/C=C/c3cc(F)c(F)c(F)c3)CC2)CC1)NCc1ccccc1 (stereo not drawn)
16600

Please report the measured IC50 for CC(=O)OCC(C1CCN(C(=O)/C=C/c2ccc(Cl)c(Cl)c2)CC1)N1CCC(c2c[nH]c3ccccc23)CC1 (stereo not drawn)
215

Please report the measured IC50 for O=C(/C=C/c1cc(F)c(F)c(F)c1)N1CCC(C(CO)N2CCC(c3c[nH]c4ccccc34)CC2)CC1 (stereo not drawn)
4

Please report the measured IC50 for CS(=O)(=O)Nc1ccc2[nH]cc(C3CCN(C(CO)C4CCN(C(=O)/C=C/c5cc(F)c(F)c(F)c5)CC4)CC3)c2c1 (stereo not drawn)
1

Please report the measured IC50 for CN(C)CC(C1CCN(C(=O)/C=C/c2cc(F)cc(F)c2)CC1)N1CCC(c2c[nH]c3ccccc23)CC1 (stereo not drawn)
8550

Please report the measured IC50 for O=C(/C=C/c1cc(F)c(F)c(F)c1)N1CCC([C@@H](CO)N2CCC(c3c[nH]c4ccccc34)CC2)CC1
0.6

Please report the measured IC50 for COc1ccc2[nH]cc(C3CCN(C(C(=O)O)C4CCN(C(=O)Nc5ccc(Cl)c(Cl)c5)CC4)CC3)c2c1 (stereo not drawn)
10

Please report the measured IC50 for O=C(O)C(C1CCN(C(=O)COc2ccc(Cl)c(Cl)c2)CC1)N1CCC(c2c[nH]c3ccccc23)CC1 (stereo not drawn)
350

Please report the measured IC50 for CC(=O)NCC(C1CCN(C(=O)/C=C/c2cccc(C(F)(F)F)c2)CC1)N1CCC(c2c[nH]c3ccccc23)CC1 (stereo not drawn)
370

Please report the measured IC50 for Cc1ccc(NC(=O)N2CCC(C(C(=O)O)N3CCC(c4c[nH]c5ccccc45)CC3)CC2)cc1C(F)(F)F (stereo not drawn)
20

Please report the measured IC50 for O=C(/C=C/c1cc(F)c(F)c(F)c1)N1CCC(C(CO)N2CCC(c3c[nH]c4ncccc34)CC2)CC1 (stereo not drawn)
3

Please report the measured IC50 for O=C(O)C(C1CCN(C(=S)Nc2cccc(Br)c2)CC1)N1CCC(c2c[nH]c3ccccc23)CC1 (stereo not drawn)
60

Please report the measured IC50 for O=C(O)C(C1CCN(C(=O)/C=C/c2cc(F)c(F)c(F)c2)CC1)N1CCC(c2ccc(Cl)cc2)CC1 (stereo not drawn)
370

Please report the measured IC50 for Cc1cc(NC(=O)N2CCC(C(C(=O)O)N3CCC(c4c[nH]c5ccccc45)CC3)CC2)ccc1F (stereo not drawn)
260

Please report the measured IC50 for Cc1cccc(/C=C/C(=O)N2CCC(C(C(=O)O)N3CCC(c4c[nH]c5ccccc45)CC3)CC2)c1 (stereo not drawn)
3

Please report the measured IC50 for Cc1cccc(/C=C/C(=O)N2CCC(C(CNC=O)N3CCC(c4c[nH]c5ccccc45)CC3)CC2)c1 (stereo not drawn)
4100

Please report the measured IC50 for COc1ccc(C2CCN(C(CO)C3CCN(C(=O)/C=C/c4ccc(Cl)c(Cl)c4)CC3)CC2)cc1 (stereo not drawn)
20

Please report the measured IC50 for CC(=O)OCC(C1CCN(C(=O)/C=C/c2cc(F)cc(F)c2)CC1)N1CCC(c2c[nH]c3ccccc23)CC1 (stereo not drawn)
30

Please report the measured IC50 for O=C(c1cc2cc(Cl)ccc2o1)N1CCC(C(CO)N2CCC(c3c[nH]c4ccccc34)CC2)CC1 (stereo not drawn)
440

Please report the measured IC50 for COCC(C1CCN(C(=O)/C=C/c2cc(F)cc(F)c2)CC1)N1CCC(c2ccc(OC)cc2)CC1 (stereo not drawn)
2400

Please report the measured IC50 for O=C(O)C(C1CCN(C(=O)/C=C/c2cc(F)cc(F)c2)CC1)N1CCC(Cc2c[nH]c3ccccc23)CC1 (stereo not drawn)
2170

Please report the measured IC50 for O=C(/C=C/c1cc(F)c(F)c(F)c1)N1CCC(C(CO)N2CCC(c3ccncc3)CC2)CC1 (stereo not drawn)
470

Please report the measured IC50 for O=C(C=Cc1ccc(Cl)c(Cl)c1)N1CCC(C(CO)N2CCC(c3ccc(Cl)cc3)CC2)CC1 (stereo not drawn)
260

Please report the measured IC50 for COc1ccc(C2CCN(C(CO)C3CCN(C(=O)/C=C/c4ccc(F)c(F)c4)CC3)CC2)cc1 (stereo not drawn)
172

Please report the measured IC50 for O=C(/C=C/c1ccc(F)cc1)N1CCC(C(CO)N2CCC(c3c[nH]c4ccc(F)cc34)CC2)CC1 (stereo not drawn)
57

Please report the measured IC50 for O=C(/C=C/c1cc(F)cc(F)c1)N1CCC(C(CO)N2CCC(c3ccc4c(c3)OCO4)CC2)CC1 (stereo not drawn)
210

Please report the measured IC50 for O=C(/C=C/c1cc(F)c(F)c(F)c1)N1CCC(C(CO)N2CCC(c3ccc4c(c3)OCO4)CC2)CC1 (stereo not drawn)
170

Source listed as patent US20060069123A1.
